tested on: MARK3; settings: concentration: 1 μM,replicates: in singlicate; n = 1;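 further: KINOMEscan kinase panel screen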
attributeMeasured: %Inh (%)
Just the number in %, nothing appended.

molecule: Cn1ccc2ncnc(Oc3ccc(NC(=O)Nc4cc(C(C)(C)C)on4)c(Cl)c3)c21
%Inh / %: 0
--
molecule: Cl.Cl.NC[C@H](CC1CCCCC1)NC(=O)c1ccc(-c2ccnc3[nH]ccc23)s1 [GSK1581428]
%Inh / %: 74
--
molecule: Cn1ccc2ncnc(Oc3ccc(NC(=O)Nc4cccc(C(F)(F)F)c4)c(F)c3)c21
%Inh / %: 8

Tested system MARK3; %Inh recorded for CC(=O)Nc1nc2cnc(Nc3cc(NC(=O)c4cccc(CC(C)(C)C#N)c4)ccc3C)nc2s1 was 0

Item COc1cccc(C2=C(Nc3cccc(Cl)c3)C(=O)NC2=O)c1 [SB-341556] ; assay system MARK3; %Inh reported as 17

----------
test system: DDR2; conditions: concentration: 1 μM,replicates: in singlicate; n = 1
Binning rule for recorded %Inh: bottom end (below 8%), midrange (8% to below 60%), top end (60% or more)

molecule: C[C@@H]1CCN(C(=O)N2CCCC2)C[C@@H]1N(C)c1ncnc2[nH]ccc12
cat: bottom end
--
molecule: CS(=O)c1ccc(-c2coc3ccc(-c4n[nH]c(=O)o4)cc23)cc1 (stereo not drawn)
cat: midrange
--
molecule: CC(C)S(=O)(=O)N1CCN(Cc2ccc3c(c2)nc(NC(=O)c2ccsc2)n3C[C@H](O)c2ccccc2)CC1
cat: midrange
--
molecule: C[C@@H](Oc1cc(-n2cnc3cc(-c4ccncc4)ccc32)sc1C(N)=O)c1ccccc1Cl
cat: bottom end
--
molecule: O=C(NOCC1CC1)c1cc(Br)c(F)c(F)c1Nc1ccc(I)cc1Cl
cat: midrange

Query :: Determine which band this molecule sits in: Cn1ccc2ncnc(Oc3ccc(NC(=O)Nc4cccc(C(F)(F)F)c4)c(F)c3)c21
Result :: top end

Query :: Lab note: which band did O=C(Nc1ccc(Oc2ccc3nc(NC(=O)C4CC4)cn3n2)c(F)c1)c1cccn(-c2ccccc2)c1=O land in?
Result :: top end

Query :: Category of C[C@@H]1CNc2c(sc3ccc4nc(-c5ccc(O)cc5)ccc4c23)C(=O)N1 :
Result :: midrange

Query :: Band assignment needed for O=C(Nc1cccc(C(F)(F)F)c1)c1cccc(Oc2ccc3nccn3n2)c1 please.
Result :: top end

Query :: Place this molecule in its band: Cc1ccc2c(-c3ccnc(Nc4ccc(C(F)(F)F)cc4)n3)cnn2n1
Result :: bottom end

----------
tested on: DLK; construct: gene MAP3K12; settings: concentration: 1 μM,replicates: in singlicate; n = 1
// values below are reported %Inh
Quick note: give the figure in %, leave out the unit.

molecule: O=C(Nc1cccc(C(F)(F)F)c1)c1cccc(Oc2ccc3nccn3n2)c1
unitsSymbol: %
%Inh: 0

Entry Cn1ccc2ncnc(Oc3ccc(NC(=O)Nc4cccc(C(F)(F)F)c4)c(Cl)c3)c21 — recorded %Inh = 0

Entry C[C@@H]1CCN(C(=O)N2CCCC2)C[C@@H]1N(C)c1ncnc2[nH]ccc12 ; %Inh = 8

// field: %Inh; key: CS(=O)(=O)Nc1ccc(-c2ccnc3[nH]ccc23)cc1 [GSK993273] ; value = 83

Noted for CCCC(=O)Nc1n[nH]c2ncccc12 [SB-601436] : its %Inh reads 0

Note to self: %Inh recorded for COc1cc2c(Nc3ccc(NC(=O)c4ccccc4)cc3)ncnc2cc1OCCCN1CCOCC1 [GSK301329] was 89

Quick note, %Inh for Cc1ccn2nc(-c3ccc(F)cc3)c(-c3ccncc3)c2c1.Cl [GW457859] landed at 44

Input COc1cccc(C2=C(Nc3cccc(Cl)c3)C(=O)NC2=O)c1 [SB-341556] . Output %Inh: 0

Notebook: O=C(NOCC1CC1)c1cc(Br)c(F)c(F)c1Nc1ccc(I)cc1Cl , %Inh read as 0

Memo: CN1CCN(CCCNc2nccc(-c3c(-c4ccc(F)cc4)nn4cc(C(N)=O)ccc34)n2)CC1 [GW622475] , reported %Inh: 0

----------
test system: AAK1; conditions: concentration: 1 μM,replicates: in singlicate; n = 1
attributeMeasured: %Inh (%)
Write the value in % as a bare number.

compound: CC(C)c1nc(-c2cccc(NS(=O)(=O)c3ccccc3)c2)c(-c2ccnc(Nc3ccc4c(c3)CN(C)CC4)n2)s1
unitsSymbol: %
%Inh: 25
//
compound: CCCC(=O)Nc1n[nH]c2ncccc12
unitsSymbol: %
%Inh: 0
//
compound: Cn1ccc2ncnc(Oc3ccc(NC(=O)Nc4cccc(C(F)(F)F)c4)c(Cl)c3)c21
unitsSymbol: %
%Inh: 0
//
compound: Cc1ccc2c(-c3ccnc(Nc4ccc(C(F)(F)F)cc4)n3)cnn2n1
unitsSymbol: %
%Inh: 12
//
compound: COc1cc2nccc(Nc3ccc(Oc4ccccc4)cc3)c2cc1OC.Cl
unitsSymbol: %
%Inh: 6

The compound Cl.c1ccc(Oc2ccc(Nc3ccnc4cc(-c5ccc(CN6CCNCC6)o5)ccc34)cc2)nc1 showed %Inh equal to 2

The compound identified as CN(c1ccc2c(c1)nc(NCc1ccc(F)cc1)n2C)c1ccnc(Nc2ccc(CS(C)(=O)=O)cc2)n1.Cl registered its %Inh at 30

%Inh reported for this compound COc1ccc(Nc2nccc(N3CCC(NC(=O)c4cccc(C#N)c4)C3)n2)cc1 (centres unmarked) : 0

----------
system: NEK7; conditions: concentration: 1 μM,replicates: in singlicate; n = 1
# reported %Inh; entries follow
Reply with the number, then its unit.

Some compounds with recorded %Inh:
compound: COc1cccc(CNC(=O)NC2CCN(c3ccnc(Nc4cc(OC)c(OC)c(OC)c4)n3)C2)c1 (stereo not drawn) [GSK1379765]
%Inh: 15%
//
compound: COc1cccc(C2=C(Nc3cccc(Cl)c3)C(=O)NC2=O)c1 [SB-341556]
%Inh: 5%

Reported %Inh for N#Cc1cccc(C(=O)NC2CCN(c3ccnc(Nc4ccc(F)cc4)n3)C2)c1 (stereo not drawn) [GSK1379708] was 0%

The value of %Inh measured for the compound Cc1n[nH]c2cc(Nc3ccnc(Nc4cccc(CN5CCOCC5)c4)n3)ccc12 [GW682569] turned out to be 0%

According to the records, this compound CNC(=O)c1ccccc1Nc1nc(Nc2cccc(CS(C)(=O)=O)c2)ncc1C.O=CO [GSK1520489] displays %Inh of 94.9%

Value of measured %Inh for the entry Cc1cccc2c(-c3ccncc3)c(-c3ccc(F)cc3)nn12.Cl [GW461487] : 0%

----------
Entries and their %Inh values follow.
test system: CHEK1; settings: concentration: 1 μM,replicates: in singlicate; n = 1
All answers are understood in %, so give the number only.

The examples below pair each entry with its known result.
molecule: CCNCC(Cc1ccccc1)NC(=O)c1cc(Br)c(-c2ccnc3[nH]ccc23)s1.Cl.Cl (centres unmarked) [GSK1383280]
unitsSymbol: %
valueObserved: 20
--
molecule: COc1cccc(OC)c1C(=O)Nc1cccc(-c2nn3ccccc3c2-c2ccnc(Nc3cccc(F)c3)n2)c1 [GSK361065]
unitsSymbol: %
valueObserved: 13
--
molecule: Nc1nccc(-c2ccc3c(N)n[nH]c3c2)n1 [GSK1034945]
unitsSymbol: %
valueObserved: 0

// recorded %Inh for Cc1ccn2nc(-c3ccc(F)cc3)c(-c3ccncc3)c2c1.Cl [GW457859] : 0

%Inh recorded for this molecule, O=C(NOCC1CC1)c1cc(Br)c(F)c(F)c1Nc1ccc(I)cc1Cl , is 0

----------
system: ERK1; construct: gene MAPK3; settings: concentration: 1 μM,replicates: in singlicate; n = 1
attributeMeasured: %Inh (%)
Just the number in %, nothing appended.

Solved cases below.
molecule: Cc1cccc(-c2nc(Nc3ccncc3)c3sccc3n2)n1
unitsSymbol: %
%Inh: 5

molecule: Cc1n[nH]c2cc(Nc3ccnc(Nc4cccc(CN5CCOCC5)c4)n3)ccc12
unitsSymbol: %
%Inh: 0

molecule: O=C(Nc1ccc(Oc2ccc3nc(NC(=O)C4CC4)cn3n2)c(F)c1)c1cccn(-c2ccccc2)c1=O
unitsSymbol: %
%Inh: 0

Recorded %Inh (molecule C[C@@H](Oc1cc(-n2cnc3cc(-c4ccncc4)ccc32)sc1C(N)=O)c1ccccc1Cl ): 0

O=C(Nc1cccc(Oc2ccc3nccn3n2)c1)Nc1cccc(C(F)(F)F)c1 has a reported %Inh of 0

Value of measured %Inh for the entry CS(=O)c1ccc(-c2coc3ccc(-c4n[nH]c(=O)o4)cc23)cc1 (centres unmarked) : 7

Entry O=C(NCC1CC1)c1ccc(-c2cc(C(=O)NC3CC3)ccc2F)cc1 , %Inh reported as 0

Looking up CC(C(=O)NC1CCN(c2ccnc(Nc3ccc(F)cc3)n2)C1)c1ccc(Cl)cc1 (centres unmarked) , I found its %Inh recorded as 0

Documented %Inh of CCCC(=O)Nc1n[nH]c2ncccc12 : 0

The measured %Inh associated with C[C@@H]1CCN(C(=O)N2CCCC2)C[C@@H]1N(C)c1ncnc2[nH]ccc12 reads 0

Per the records, this molecule ( Cn1ccc2ncnc(Oc3ccc(NC(=O)Nc4cccc(C(F)(F)F)c4)c(Cl)c3)c21 ) has %Inh equal to 0

Given item Cn1ccc2ncnc(Oc3ccc(NC(=O)Nc4cnn(C(C)(C)C)c4)c(Cl)c3)c21 , the value recorded as its %Inh is 19

// sample CCn1c(-c2nonc2N)nc2cncc(Br)c21 , its %Inh was 0

// %Inh lookup, molecule = CN(c1ccccc1CNc1nc(Nc2ccc3c(c2)CC(=O)N3)ncc1C(F)(F)F)S(C)(=O)=O , result: 68

Source of measurements: paper PMC5540273
